- test: Stability of compounds in mouse blood plasma
- Format: in vitro ADME
Numbered stars: 1 amine (or outer) side, 2 acyl side, 3 side chain; on linkers, the order of the positions; unused ones are H or OH. Square brackets hold non-standard residues; d marks the D form. Peptide text beside a SMILES is read from it. * marks the point of attachment. ξ: configuration not given here. Gly(1-amidinopiperidin-4-yl) = N=C(N)N1CCC([C@H](N)C(=O)O)CC1; X1 = CC(C)c1oc([C@H](CO)N[*:1])nc1C(=O)[*:2]; Pro(3R-Ph) = O=C(O)[C@H]1NCC[C@@H]1c1ccccc1; N(Me)CH2CH2Ph = CN(CCc1ccccc1)*; Tic = O=C(O)[C@@H]1Cc2ccccc2CN1; Cha = N[C@@H](CC1CCCCC1)C(=O)O; NHPhenethyl = c1ccc(CCN*)cc1; ξDisc = O=C(O)C1NCc2ccccc21; X4 = OCCOCCN(CCc1ccccc1)*; Nle = CCCC[C@H](N)C(=O)O; X2 = OCCOCCN(Cc1ccccc1)*; X5 = OCCN(Cc1ccccc1)*
Outcome label depends on Stability (Arbitrary units) Mouse 24 h relative to 100 Arbitrary units: at/above gives Condition met, below gives Condition not met.

Please review the following examples before continuing.
compound	classification
CCCC[C@H](NC(=O)[C@@H]1Cc2ccccc2CN1C(=O)[C@@H](NC(=O)[C@H](CC1CCCCC1)NC(C)=O)C1CCN(C(=N)N)CC1)C(=O)N(CCO)Cc1ccccc1 [Compound P78, Ac-Cha-Gpg-Tic-Nle-N(Bn)CH2CH2OH] (Ac-[Cha][Gly(1-amidinopiperidin-4-yl)][Tic][Nle]-X5)	Condition met
CSCC[C@H](NC(=O)[C@@H]1Cc2ccccc2CN1C(=O)[C@H](CCCNC(=N)N)NC(=O)[C@H](CC1CCCCC1)NC(C)=O)C(=O)N1CC[C@H](c2ccccc2)[C@H]1C(N)=O [Compound P31, Ac-Cha-Arg-Tic-Met-βPhPro-NH2] (Ac-[Cha]R[Tic]M[Pro(3R-Ph)]-NH2)	Condition not met
CCCC[C@H](NC(=O)C1c2ccccc2CN1C(=O)[C@@H](NC(=O)[C@H](CC1CCCCC1)NC(C)=O)C1CCN(C(=N)N)CC1)C(=O)N(C)Cc1ccccc1 (single isomer, unassigned) [Compound P76-1, Ac-Cha-Gpg-Disc-Nle-N(Me)Bn]	Condition not met
CCCC[C@H](NC(=O)[C@@H]1Cc2ccccc2CN1C(=O)[C@@H](NC(=O)[C@H](CC1CCCCC1)NC(C)=O)C1CCN(C(=N)N)CC1)C(=O)N1CC[C@H](c2ccccc2)[C@H]1C(=O)N[C@@H](CO)c1nc(C(=O)N(C)C)c(C(C)C)o1 [Compound P53] (Ac-[Cha][Gly(1-amidinopiperidin-4-yl)][Tic][Nle][Pro(3R-Ph)][X1]-NMe2)	Condition met
CCCC[C@H](NC(=O)[C@@H]1Cc2ccccc2CN1C(=O)[C@@H](NC(=O)[C@H](CC1CCCCC1)NC(C)=O)C1CCN(C(=N)N)CC1)C(=O)NCCc1ccccc1 [Compound P69, Ac-Cha-Gpg-Tic-Nle-N(H)CH2CH2Ph] (Ac-[Cha][Gly(1-amidinopiperidin-4-yl)][Tic][Nle]-NHPhenethyl)	Condition not met

Q) Does the reported Stability (Arbitrary units) Mouse 24 h for CSCC[C@H](NC(=O)[C@@H]1Cc2ccccc2CN1C(=O)[C@@H](NC(=O)[C@H](CC1CCCCC1)NC(C)=O)C1CCN(C(=N)N)CC1)C(N)=O [Compound P67, Ac-Cha-Gpg-Tic-Met-NH2] (Ac-[Cha][Gly(1-amidinopiperidin-4-yl)][Tic]M-NH2) fall at or above the 100 Arbitrary units mark?
A) Condition not met

Q) Does the reported Stability (Arbitrary units) Mouse 24 h for CSCC[C@H](NC(=O)C1c2ccccc2CN1C(=O)[C@@H](NC(=O)[C@H](CC1CCCCC1)NC(C)=O)C1CCN(C(=N)N)CC1)C(=O)N1CC[C@H](c2ccccc2)[C@H]1C(=O)N[C@@H](CO)c1nc(C(=O)N(C)C)c(C(C)C)o1 (stereo partly drawn) [Compound P41-1] (Ac-[Cha][Gly(1-amidinopiperidin-4-yl)][ξDisc]M[Pro(3R-Ph)][X1]-NMe2) fall at or above the 100 Arbitrary units mark?
A) Condition met

Q) Does the reported Stability (Arbitrary units) Mouse 24 h for CSCC[C@H](NC(=O)[C@@H]1Cc2ccccc2CN1C(=O)[C@@H](NC(=O)[C@H](CC1CCCCC1)NC(C)=O)C1CCN(C(=N)N)CC1)C(=O)N1CC[C@H](c2ccccc2)[C@H]1C(=O)N[C@@H](CO)c1nc(C(=O)N(C)C)c(C(C)C)o1 [Compound P60] (Ac-[Cha][Gly(1-amidinopiperidin-4-yl)][Tic]M[Pro(3R-Ph)][X1]-NMe2) fall at or above the 100 Arbitrary units mark?
A) Condition not met

Q) Does the reported Stability (Arbitrary units) Mouse 24 h for CCCC[C@H](NC(=O)[C@@H]1Cc2ccccc2CN1C(=O)[C@H](CCCNC(=N)N)NC(=O)[C@H](CC1CCCCC1)NC(C)=O)C(=O)N(CCOCCO)CCc1ccccc1 [Compound P88] (Ac-[Cha]R[Tic][Nle]-X4) fall at or above the 100 Arbitrary units mark?
A) Condition met

Q) Does the reported Stability (Arbitrary units) Mouse 24 h for CSCC[C@H](NC(=O)[C@@H]1Cc2ccccc2CN1C(=O)[C@@H](NC(=O)[C@H](CC1CCCCC1)NC(C)=O)C1CCN(C(=N)N)CC1)C(=O)N1CC[C@H](c2ccccc2)[C@H]1C(N)=O [Compound P80, Ac-Cha-Gpg-Tic-Met-βPhProNH2] (Ac-[Cha][Gly(1-amidinopiperidin-4-yl)][Tic]M[Pro(3R-Ph)]-NH2) fall at or above the 100 Arbitrary units mark?
A) Condition met

Q) Does the reported Stability (Arbitrary units) Mouse 24 h for CSCC[C@H](NC(=O)[C@@H]1Cc2ccccc2CN1C(=O)[C@H](CCCNC(=N)N)NC(=O)[C@H](CC1CCCCC1)NC(C)=O)C(=O)N(C)CCc1ccccc1 [Compound P84, Ac-Cha-Arg-Tic-Met-N(Me)CH2CH2Ph] (Ac-[Cha]R[Tic]M-{N(Me)CH2CH2Ph}) fall at or above the 100 Arbitrary units mark?
A) Condition not met

Q) Does the reported Stability (Arbitrary units) Mouse 24 h for CCCC[C@H](NC(=O)C1c2ccccc2CN1C(=O)[C@@H](NC(=O)[C@H](CC1CCCCC1)NC(C)=O)C1CCN(C(=N)N)CC1)C(=O)N1CC[C@H](c2ccccc2)[C@H]1C(=O)N[C@@H](CO)c1nc(C(=O)N(C)C)c(C(C)C)o1 (stereo partly drawn) [Compound P81-1] (Ac-[Cha][Gly(1-amidinopiperidin-4-yl)][ξDisc][Nle][Pro(3R-Ph)][X1]-NMe2) fall at or above the 100 Arbitrary units mark?
A) Condition not met

Q) Does the reported Stability (Arbitrary units) Mouse 24 h for CCCC[C@H](NC(=O)[C@@H]1Cc2ccccc2CN1C(=O)[C@H](CCCNC(=N)N)NC(=O)[C@H](CC1CCCCC1)NC(C)=O)C(=O)N(CCOCCO)Cc1ccccc1 [Compound P98, Ac-Cha-Arg-Tic-Nle-N(Bn)CH2CH2OCH2CH2OH] (Ac-[Cha]R[Tic][Nle]-X2) fall at or above the 100 Arbitrary units mark?
A) Condition not met
